Each record here notes measured apparent KD of MS2 coat protein.
Test system: MS2 coat protein
Test: apparent KD of MS2 coat protein; designed switch direction (-1 OFF switch, 1 ON switch): -1; higher = weaker reporter binding
Conditions: input ligand: microRNA oligo, concentration not stated
Could you give me the number in nM? Just the number is fine.

## Task Recorded apparent KD of MS2 coat protein for AAAACGUGAGCAGGAUAUGCAAUAAGAUCAGGUCUUCACAUGAGGAUCACCCAUGUAUAAGGGACGCAGAAGGGCUGAUAAAAG [Aesedat] (Eterna round: R96, puzzle: Exclusion NG 2) , please?
## Result 49.6

## Task Recorded apparent KD of MS2 coat protein for ACGAUGACUGAAAAGUGUAAACUGACAUGAGGAUCACCCAUGUAGGAUAUGGCUACGAAAAGUAGUCAGAAGGGCAUGUCAUCA [Omei Exc(NG) 3 Av10] (Eterna round: R96, puzzle: Exclusion NG 3) , please?
## Result 13.4

## Task Recorded apparent KD of MS2 coat protein for UGGGUCACAGGAUAUACAUGAGGAUCACCCAUGUCGUAUUUCGUGGCGGAGAGCUCGAGUAGAAGGGUGCAUCC [Malarala] (Eterna round: R96, puzzle: Exclusion 3) , please?
## Result 58.9

## Task Recorded apparent KD of MS2 coat protein for UAUAUAUAGUAAGGAUAUGUAUUUGUUUUAUAAACAGAAGGUACUGACAUGAGGAUCACCCAUGUUUUAGUGUGGGCAUGUAGA [JMF's solution 11] (Eterna round: R96, puzzle: Exclusion NG 1) , please?
## Result 32.8

## Task Recorded apparent KD of MS2 coat protein for CUAAAUCAUGUAGGAUAUGCGUGGCAAAGCUAUGCAGAAGGACAUGAGGAUCACCCAUGUCAUUCCGUCUGAGAACAGACGGGA [Mat - Exclusion NG 1 - Mod of JL - D51] (Eterna round: R96, puzzle: Exclusion NG 1) , please?
## Result 17.1

## Task Recorded apparent KD of MS2 coat protein for UUGGUUGUGGUAGGAUAUCCGUUGGAAACCGUUGGAGAAGGACCACAGUCACUGGGUCUUUGUUUGGUGGAGUGGAAGAACCAU [pwkr exNG1 F6.19] (Eterna round: R96, puzzle: Exclusion NG 1) , please?
## Result 210

## Task Recorded apparent KD of MS2 coat protein for AAGCAUUGCCAAAGGUAGUGCUUUACAUGAGGAUCACCCAUGUAGGAUAUGGUAGGCAAAGCUUACCAGAAGGACAUGAUAAUU [Mat - Exclusion NG 3 - Mod of JL - D13] (Eterna round: R96, puzzle: Exclusion NG 3) , please?
## Result 47.4

## Task Recorded apparent KD of MS2 coat protein for UUAGAUAGGUCAGGAUAUCGAUGAUUGAAUAGUAUGAUUUACAUGAGGAUCACCCAUGUUUUGUACGAGAAGGGACGUUAGAUU [JR_ExcNG2_Sub020] (Eterna round: R96, puzzle: Exclusion NG 2) , please?
## Result 22.6

## Task Recorded apparent KD of MS2 coat protein for UCGUUCCGUGUAGGAUAUUGGUCUCCCUCGGGCCGAGAAGGACAUGAGGAUCACCCAUGUAUGUUAUUAUCGCGCGUGGCGCAU [Design 90] (Eterna round: R96, puzzle: Exclusion NG 1) , please?
## Result 17.8
